This collection of values is drawn from patent US20080027042A1.

pIC50: −log10 of the molar value. Counter-ions that a name gives are not always drawn.
Below are pIC50 values recorded for Aurora B (Homo sapiens).
ASSAY_READOUT: pIC50

// worked examples, pIC50 included
| COMPOUND | TEST_RESULT |
| --- | --- |
| O=C(c1cccc(C(F)F)c1F)N1CCN(Cc2cccc(Nc3ncns3)n2)CC1 [Example 41, trifluoroacetate] | 5.30 |
| Cc1cc(Nc2cccc(CN3CCN(C(=O)c4cccc(C(F)(F)F)c4F)CC3)n2)n[nH]1 | 6.23 |
| O=C(c1ccccc1C(F)(F)F)N1CCN(Cc2cccc(Nc3ncns3)n2)CC1 | 5.04 |

I: O=C(c1cccc(C(F)(F)F)c1Cl)N1CCN(Cc2cccc(Nc3cc[nH]n3)n2)CC1 [Example 18, trifluoroacetate]
II: C[C@@H]1CN(Cc2cccc(Nc3ncns3)n2)CCN1C(=O)c1ccccc1 [Example 33, trifluoroacetate]
III: Cc1cc(Nc2cccc(CN3CCN(C(=O)c4cccc(Br)c4F)CC3)n2)n[nH]1
Sort the 3 compounds by pIC50; largest first, smallest last. Your task in answering is to list the labels in the requested order.
III, I, II

A: O=C(c1cccc(C(F)(F)F)c1F)N1CCN(Cc2cccc(Nc3nccs3)n2)CC1 [Example 13, trifluoroacetate]
B: O=C(c1cccc(Cl)c1F)N1C[C@@H]2C[C@H]1CN2Cc1cccc(Nc2nccs2)n1 [Example 10, trifluoroacetate]
Form: Entry with minimum pIC50 (choose one): A / B Use the label to indicate which entry you chose.
A
(A: 6.42, B: 7.04)
